Hey, just so you know, these numbers are from ChEMBL document CHEMBL1126018.

experimental target: Serotonin 2 (5-HT2) receptor (Rattus norvegicus, UniProt P30994+P08909+P14842)
test: In vitro antagonistic activity tested against the contraction induced by 5-HT through 5-hydroxytryptamine 2 receptor in rat thoracic aortic strips
Type: functional
quantity name: pA2
Answer using only a numeral; do not append any unit.

For reference, reported pA2 for O=c1n(CCN2CCC(=C(c3ccc(F)cc3)c3ccc(F)cc3)CC2)nc2n1CCC2 stands at 7.1

For reference, reported pA2 for O=C(c1ccc(F)cc1)C1(O)CCN(CCn2nc3n(c2=O)CCCC3)CC1 stands at 6.8

For reference, reported pA2 for O=C(c1ccc(F)cc1)C1CCN(CCn2c(=O)nc3sccn3c2=O)CC1 stands at 7.9

For reference, reported pA2 for COc1ccc(C(=C2CCN(CCn3nc4n(c3=O)CCCC4)CC2)c2ccc(OC)cc2)cc1 stands at 6.8

For reference, reported pA2 for O=C(c1ccc(F)cc1)C1CCN(CCn2c(=O)nc3n(c2=O)CCCC3)CC1 stands at 8.1

For reference, reported pA2 for O=c1n(CCN2CCC(=C(c3ccc(F)cc3)c3ccc(F)cc3)CC2)nc2n1CCCC2 stands at 8.6

For reference, reported pA2 for O=c1n(CCN2CCC(=C(c3ccccc3)c3ccccc3)CC2)nc2n1CCCCC2 stands at 7

For reference, reported pA2 for O=C(c1ccc(F)cc1)C1CCN(CCn2c(=O)nc3ccccn3c2=O)CC1 stands at 8.1

For reference, reported pA2 for O=c1n(CCN2CCC(=C(c3ccccc3)c3ccc(F)cc3)CC2)nc2n1CCCCC2 stands at 7.3

For reference, reported pA2 for O=C(c1ccc(F)cc1)C1CCN(CCn2c(=O)nc3n(c2=O)CCCCC3)CC1 stands at 7.8

For reference, reported pA2 for O=c1n(CCN2CCC(=C(c3ccc(F)cc3)c3ccc(F)cc3)CC2)nc2n1CCCCC2 stands at 8.5

For reference, reported pA2 for O=c1nc2sccn2c(=O)n1CCN1CCC(=C(c2ccc(F)cc2)c2ccc(F)cc2)CC1 stands at 7.1

For reference, reported pA2 for O=C(c1ccc(F)cc1)C1(c2ccc(F)cc2)CCN(CCn2nc3n(c2=O)CCCC3)CC1 stands at 6

For reference, reported pA2 for O=C(c1ccc(F)cc1)C1CCN(CCn2c(=O)nc3n(c2=O)CCC3)CC1 stands at 7.3

For reference, reported pA2 for O=C(c1ccc(F)cc1)C1(O)CCN(CCn2c(=O)nc3n(c2=O)CCCC3)CC1 stands at 6.7

For reference, reported pA2 for O=c1n(CCN2CCC(=C(c3ccc(F)cc3)c3ccc(F)cc3)CC2)nc2n1CCSC2 stands at 7.8

For reference, reported pA2 for O=c1n(CCN2CCC(=C(c3ccc(F)cc3)c3ccc(F)cc3)CC2)nc2n1CCOC2 stands at 7.2

For reference, reported pA2 for O=C(c1ccc(F)cc1)C1CCN(CCn2nc3n(c2=O)CCCC3)CC1c1ccc(F)cc1 (configuration not stated) stands at 6.8

For reference, reported pA2 for O=c1nc2n(c(=O)n1CCN1CCC(=C(c3ccc(F)cc3)c3ccc(F)cc3)CC1)CCCC2 stands at 8.3

For reference, reported pA2 for O=C(c1ccc(F)cc1)C1CCN(CCn2nc3n(c2=O)CCC3)CC1 stands at 6.8

For reference, reported pA2 for O=C(c1ccc(F)cc1)C1(O)CCN(CCCn2nc3n(c2=O)CCCCC3)CC1 stands at 7.3

For reference, reported pA2 for N#CC(=C1CCN(CCn2nc3n(c2=O)CCCC3)CC1)c1ccc(F)cc1 stands at 6.7
